- assay_comment: Half life in PBS at pH 7.4 at 100 uM incubated at 37 degreeC up to 24 hrs by UPHLC analysis
- Type: ADME
endpoint: half-life at 100 µM (min)

1. C[C@@H]1C[C@H]2[C@@H]3CCC4=CC(=O)C=C[C@]4(C)[C@@]3(F)[C@@H](O)C[C@]2(C)[C@@]1(O)C(=O)COC(=O)CN=C=S
2. C[C@]12C=CC(=O)C=C1CC[C@@H]1[C@@H]2C(=O)C[C@@]2(C)[C@H]1CC[C@]2(O)C(=O)COC(=O)CN=C=S
Decide: 1 or 2 , by lowest recorded half-life at 100 µM. // caller expects the label of the chosen entry
2
(2: 12 min, 1: 42 min)

Source: ChEMBL document CHEMBL5579848
